- protocolText: Perfume component interaction with cyclodextrin (CD interaction)
- Assay type: physicochemical
- testConditions: perfume component complexing with cyclodextrin
reportedEndpoint: CD interaction

Observe how each entry below is paired with its result.
CCC(C)(O)CCCC(C)C (centres unmarked) [Tetrahydrolinalol]; significant
O=C(Cc1ccccc1)OCCc1ccccc1 [Phenyl-Ethyl-Phenyl Acetate]; weak
CC1COCc2cc3c(cc21)C(C)(C)C(C)C3(C)C (centres unmarked) [Galaxolide]; weak
CC(=O)C1(C)CC2=C(CCCC2(C)C)CC1C (centres unmarked); weak
CCCCCCOC(=O)c1ccccc1O [Hexyl Salicylate]; weak

Please give CD interaction for each item listed below.
1. CC(=O)/C=C/C1C(C)=CCCC1(C)C (centres unmarked)
2. CCCCCC1C(=O)CCC1CC(=O)OC (centres unmarked) [Methyl Dihydro Jasmonate]
3. CC(=O)C(C)=C(C)C(C)C(C)(C)C (centres unmarked)
4. CC(=O)OC(C)(C)C1CC=C(C)CC1 (centres unmarked) [Terpinyl Acetate]

Marked response:
1. strong
2. weak
3. strong
4. significant

Please give CD interaction for each item listed below.
1. CC(C=O)Cc1ccc(C(C)(C)C)cc1 (centres unmarked)
2. CC(=O)OC1CC2CC1C1CC=CC21 (centres unmarked) [Flor Acetate]

Marked response:
1. strong
2. strong

----------
- protocolText: Perfume component interaction with cyclodextrin (CD interaction)
- Assay type: physicochemical
- testConditions: perfume component complexing with cyclodextrin
reportedEndpoint: CD interaction

CC(C=O)Cc1ccc(C(C)C)cc1 (stereo not shown); strong
CCCCCCCCCCCCCC(=O)OC(C)C [Iso-propyl Myristate]; weak
CCOC(=O)c1ccccc1C(=O)OCC [Diethyl Phthalate]; weak
CCCCCCC(C=O)=Cc1ccccc1; weak
CC(=O)OC1CCC(C(C)(C)C)CC1 (stereo not shown) [Vertenex, para-tert-butylcyclohexyl acetate]; strong
CC(C)(O)CCCC1=CCC(C=O)CC1 (stereo not shown); weak

Pending compound:
Exam item: Annotate the compound CCC(=O)OC1CC2CC1C1CC=CC21 (stereo not shown) with its measured CD interaction.
Marked response: strong
